Target: human Yes1 enzyme (Homo sapiens, UniProt P07947)
Construct: made in house
Sequence (P07947 whole entry): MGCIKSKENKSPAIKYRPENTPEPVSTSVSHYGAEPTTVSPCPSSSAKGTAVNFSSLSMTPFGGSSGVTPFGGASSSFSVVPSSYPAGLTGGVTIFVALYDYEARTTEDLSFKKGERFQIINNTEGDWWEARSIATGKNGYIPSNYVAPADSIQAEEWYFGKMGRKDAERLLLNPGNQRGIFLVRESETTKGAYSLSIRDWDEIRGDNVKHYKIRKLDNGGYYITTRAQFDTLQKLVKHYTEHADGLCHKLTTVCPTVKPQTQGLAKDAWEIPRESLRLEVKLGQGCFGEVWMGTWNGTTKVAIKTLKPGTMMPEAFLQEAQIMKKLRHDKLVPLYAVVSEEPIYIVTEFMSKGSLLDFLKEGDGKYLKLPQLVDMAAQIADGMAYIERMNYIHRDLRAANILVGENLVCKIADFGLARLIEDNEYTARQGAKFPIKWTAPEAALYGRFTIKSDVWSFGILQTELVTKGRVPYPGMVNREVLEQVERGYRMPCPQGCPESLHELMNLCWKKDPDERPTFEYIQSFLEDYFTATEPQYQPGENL
Experiment: Yes1 enzyme inhibitory activity (time-resolved fluorometry, biotinylated peptide phosphorylation)
Assay type: biochemical
Details: biotinylated peptide phosphorylation, read-out: YES_IC50
READOUT NAME: pIC50
Give bare numbers, as −log10 of the molar value.

Please give pIC50, item by item, for the list that follows.
1. Cc1cc2cc(C(=O)c3cnn(-c4ccc(Oc5ccccc5F)cc4C)c3N)[nH]c2cc1NS(=O)(=O)c1cccc(F)n1 [Example 5-1-515]
2. Cc1cc(Oc2c(F)cccc2F)ncc1-n1ncc(C(=O)c2cc3cc(OCC(F)F)c(C4CCN(S(C)(=O)=O)CC4)cc3[nH]2)c1N [Example 4-17-023]
3. Cc1cc(Oc2ccccc2F)ncc1-n1ncc(C(=O)c2cc3cc(F)c(NS(=O)(=O)c4cc(F)cc(F)c4)cc3[nH]2)c1N [Example 5-1-564]
4. Cc1cc(Oc2ccccc2F)ccc1-n1ncc(C(=O)c2cc3cc(Cl)c(NS(C)(=O)=O)cc3[nH]2)c1N [Example 4-2-077]
5. Cc1cc2cc(C(=O)c3cnn(-c4c(C)cc(Oc5cccc(F)c5F)cc4F)c3N)[nH]c2cc1NS(=O)(=O)CCCF [Example 4-2-071]
6. Cc1cc(Oc2ccccc2F)ccc1-n1ncc(C(=O)c2cc3cc(OCC(F)F)c(C4CCN(S(=O)(=O)C5CC5)CC4)cc3[nH]2)c1N [Example 4-17-016]

Marked response:
8.62
8.17
7.85
9.19
7.92
8.19

---

Biological target: human Src enzyme (Homo sapiens)
Construct: purchased Carna Biosciences, Inc. 08-173
Test: Src enzyme inhibitory activity (time-resolved fluorometry, biotinylated peptide phosphorylation)
Format: biochemical
Settings: biotinylated peptide phosphorylation, read-out: SRC_IC50
Entries whose IC50 is below 200 nM take satisfied; entries at or above 200 nM take not satisfied.

Example entries and their recorded answers appear below.
[
  {
    "COMPOUND": "Cc1cc(Oc2ccccc2F)ccc1-n1ncc(C(=O)c2cc3cc(F)c(NS(=O)(=O)c4cccnc4)cc3[nH]2)c1N [Example 5-1-489]",
    "CATEGORY": "satisfied"
  },
  {
    "COMPOUND": "Cc1cc(Oc2ccccc2F)ccc1-n1ncc(C(=O)c2cc3cc(F)c(N4C(=O)NC5(CCOCC5)C4=O)cc3[nH]2)c1N [Example 5-1-437]",
    "CATEGORY": "satisfied"
  }
]

Now look at this one.
Exam item: Would you kindly verify if IC50 of Cc1cc2cc(C(=O)c3cnn(-c4ccc(Oc5ccccc5F)cc4C)c3N)[nH]c2cc1N1CCOCC1 [Example 4-2-122] is strictly less than 200 nM?
Marked response: satisfied

---

I'd appreciate it if you could supply IC50 values for the items below.
Biological target: human Lck enzyme (Homo sapiens)
Construct: purchased Carna Biosciences, Inc. 08-170
Sequence (P06239 whole entry): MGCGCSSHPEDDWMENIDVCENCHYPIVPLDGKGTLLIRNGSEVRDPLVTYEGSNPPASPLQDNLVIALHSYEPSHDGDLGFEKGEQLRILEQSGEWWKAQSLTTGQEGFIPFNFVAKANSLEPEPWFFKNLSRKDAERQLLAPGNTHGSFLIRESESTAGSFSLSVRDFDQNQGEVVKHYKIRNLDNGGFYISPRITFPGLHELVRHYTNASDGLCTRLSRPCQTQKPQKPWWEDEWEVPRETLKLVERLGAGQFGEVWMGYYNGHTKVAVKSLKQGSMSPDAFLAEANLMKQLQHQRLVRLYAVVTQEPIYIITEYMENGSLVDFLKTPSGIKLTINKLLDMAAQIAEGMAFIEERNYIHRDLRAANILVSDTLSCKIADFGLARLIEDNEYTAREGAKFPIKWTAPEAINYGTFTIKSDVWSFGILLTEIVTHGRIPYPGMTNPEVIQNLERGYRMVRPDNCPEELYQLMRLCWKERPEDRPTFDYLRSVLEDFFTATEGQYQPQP
Experiment: Lck enzyme inhibitory activity (time-resolved fluorometry, biotinylated peptide phosphorylation)
Type: biochemical
Conditions: biotinylated peptide phosphorylation, read-out: LCK_IC50
Give bare numbers, in nM.

Examples from the recorded data:
[
  {
    "SAMPLE SMILES": "Cc1cc(Oc2cccc(F)c2)ncc1-n1ncc(C(=O)c2cc3cc(F)c(NS(=O)(=O)C4CC4)cc3[nH]2)c1N",
    "READOUT NAME": "IC50",
    "DATA VALUE": 79
  },
  {
    "SAMPLE SMILES": "Cc1cc(Oc2ccccc2F)ccc1-n1ncc(C(=O)c2cc3cc(OC(F)F)c(NC4COC4)cc3[nH]2)c1N",
    "READOUT NAME": "IC50",
    "DATA VALUE": 8.9
  },
  {
    "SAMPLE SMILES": "COc1cc2cc(C(=O)c3cnn(-c4ccc(Oc5ccccc5F)cc4C)c3N)[nH]c2cc1N1CCCS1(=O)=O",
    "READOUT NAME": "IC50",
    "DATA VALUE": 5.6
  },
  {
    "SAMPLE SMILES": "Cc1cc(Oc2ccccc2F)ncc1-n1ncc(C(=O)c2cc3cc(F)c(NS(=O)(=O)NCCO)cc3[nH]2)c1N",
    "READOUT NAME": "IC50",
    "DATA VALUE": 13
  },
  {
    "SAMPLE SMILES": "Cc1cc2cc(C(=O)c3cnn(-c4cnc(Oc5ccccc5F)cc4C)c3N)[nH]c2cc1NS(=O)(=O)c1cc(C(F)(F)F)ccn1",
    "READOUT NAME": "IC50",
    "DATA VALUE": 110
  }
]

Now for the molecule whose IC50 we want.
Exam item: Which IC50 is listed for Cc1cc(Oc2ccccc2F)ncc1-n1ncc(C(=O)c2cc3cc(F)c(NS(=O)(=O)c4cccc(C#N)c4)cc3[nH]2)c1N ?
Marked response: 150

---

Biological target: human Lck enzyme (Homo sapiens)
Construct: purchased Carna Biosciences, Inc. 08-170
Assay: Lck enzyme inhibitory activity (time-resolved fluorometry, biotinylated peptide phosphorylation)
Assay type: biochemical
Conditions: read-out: LCK_IC50
pIC50: −log10 of the molar value.
# class assignment by measured pIC50: bucket 1: < 7; bucket 2: ≥ 7 and < 8; bucket 3: ≥ 8

[
  {
    "SAMPLE SMILES": "CC(C)N1CCC(c2cc3[nH]c(C(=O)c4cnn(-c5ccc(Oc6cccc(F)c6)cc5)c4N)cc3cc2F)CC1",
    "EXPERIMENTAL TARGET": "human Lck enzyme (Homo sapiens)",
    "CATEGORY": "bucket 3"
  }
]

Exam item: Looking at Cc1cc(Oc2c(F)cccc2F)ncc1-n1ncc(C(=O)c2cc3cc(OC4CCN(CCO)CC4)c(Br)cc3[nH]2)c1N , which class would you pick?
Marked response: bucket 3

Exam item: Subsequent entry: Cc1cc(Oc2ccccc2F)ccc1-n1ncc(C(=O)c2cc3cc(F)c(-n4c(C)cc(=O)[nH]c4=O)cc3[nH]2)c1N
Marked response: bucket 3

---

Molecular target: human Src enzyme (Homo sapiens, UniProt P12931)
Construct: purchased Carna Biosciences, Inc. 08-173
Sequence (P12931 whole entry): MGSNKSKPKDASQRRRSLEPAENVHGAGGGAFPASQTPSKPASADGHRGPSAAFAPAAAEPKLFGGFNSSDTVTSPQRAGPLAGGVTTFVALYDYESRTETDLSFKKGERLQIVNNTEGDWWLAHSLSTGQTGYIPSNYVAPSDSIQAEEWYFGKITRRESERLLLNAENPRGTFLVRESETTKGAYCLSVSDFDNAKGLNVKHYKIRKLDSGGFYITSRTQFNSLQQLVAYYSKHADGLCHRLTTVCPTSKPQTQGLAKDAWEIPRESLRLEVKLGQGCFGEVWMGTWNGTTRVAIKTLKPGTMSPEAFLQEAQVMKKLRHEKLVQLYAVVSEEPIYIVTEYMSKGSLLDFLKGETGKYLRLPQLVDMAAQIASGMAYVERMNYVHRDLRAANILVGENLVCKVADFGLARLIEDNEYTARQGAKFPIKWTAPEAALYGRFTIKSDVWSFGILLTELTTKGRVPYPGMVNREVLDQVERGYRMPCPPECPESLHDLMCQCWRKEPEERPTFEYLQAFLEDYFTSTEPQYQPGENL
Assay: Src enzyme inhibitory activity (time-resolved fluorometry, biotinylated peptide phosphorylation)
Format: biochemical
Details: biotinylated peptide phosphorylation, read-out: SRC_IC50
Entries whose IC50 is below 200 nM take Satisfied; entries at or above 200 nM take Not satisfied.

[
  {
    "COMPOUND": "Cc1cc2cc(C(=O)c3cnn(-c4cnc(Oc5c(F)cccc5F)cc4C)c3N)[nH]c2cc1NS(=O)(=O)c1cccc(F)c1",
    "CATEGORY": "Not satisfied"
  },
  {
    "COMPOUND": "Cc1cc(Oc2ccccc2F)ncc1-n1ncc(C(=O)c2cc3cc(OCC(F)F)c(NS(=O)(=O)c4cccc(C#N)c4)cc3[nH]2)c1N",
    "CATEGORY": "Not satisfied"
  },
  {
    "COMPOUND": "Cc1cc(Oc2ccccc2F)ncc1-n1ncc(C(=O)c2cc3cc(Cl)c(NS(C)(=O)=O)cc3[nH]2)c1N",
    "CATEGORY": "Satisfied"
  },
  {
    "COMPOUND": "Cc1cc(Oc2ccccc2F)ccc1-n1ncc(C(=O)c2cc3cc(F)c(N4C(=O)NC(C)(C(F)(F)F)C4=O)cc3[nH]2)c1N (stereo not shown)",
    "CATEGORY": "Satisfied"
  },
  {
    "COMPOUND": "Cc1cnc(F)c(S(=O)(=O)Nc2cc3[nH]c(C(=O)c4cnn(-c5ccc(Oc6ccccc6F)cc5C)c4N)cc3cc2C)c1",
    "CATEGORY": "Not satisfied"
  }
]

Now look at this one.
Exam item: Would you kindly verify if IC50 of Cc1cc2cc(C(=O)c3cnn(-c4ccc(Oc5ccccc5F)cc4C)c3N)[nH]c2cc1NS(=O)(=O)c1cccc(Cl)n1 is strictly less than 200 nM?
Marked response: Not satisfied

---

I'd appreciate it if you could supply IC50 values for the items below.
Target: human Yes1 enzyme (Homo sapiens)
Construct: made in house
Test: Yes1 enzyme inhibitory activity (time-resolved fluorometry, biotinylated peptide phosphorylation)
Type: biochemical
Settings: read-out: YES_IC50
Numbers only, in nM.

Examples from the recorded data:
[
  {
    "SAMPLE SMILES": "Cc1cc(Oc2ccccc2F)ccc1-n1ncc(C(=O)c2cc3cc(N4CCOCC4)c(-n4c(C)cc(=O)[nH]c4=O)cc3[nH]2)c1N",
    "UNIT STRING": "nM",
    "IC50": 0.51
  },
  {
    "SAMPLE SMILES": "Nc1c(C(=O)c2cc3cc(F)c(NS(=O)(=O)CCCF)cc3[nH]2)cnn1-c1c(F)cc(Oc2ccccc2F)cc1F",
    "UNIT STRING": "nM",
    "IC50": 0.84
  }
]

Please give IC50, item by item, for the list that follows.
1. Cc1cc(Oc2ccccc2F)ncc1-n1ncc(C(=O)c2cc3cc(F)c(NS(=O)(=O)CC(=O)NC(C)C)cc3[nH]2)c1N
2. CC(C)N1CCC(c2cc3cc(C(=O)c4cnn(-c5ccc(Oc6cccc(Cl)c6)cc5F)c4N)[nH]c3cc2F)CC1
3. Cc1cc(Oc2ccccc2F)ccc1-n1ncc(C(=O)c2cc3cc(F)c(N4CCC(N5CCOCC5)CC4)cc3[nH]2)c1N
4. Cc1cc(-n2ncc(C(=O)c3cc4cc(N5CCOCC5)c(N5CCC(N6CCOCC6)CC5)cc4[nH]3)c2N)ccc1Oc1ccccc1F

Marked response:
1. 1.7
2. 2
3. 0.75
4. 1.8
